# assay_system: PI 3-kinase delta (Homo sapiens (Human), UniProt O00329)
# Sequence (O00329 whole entry): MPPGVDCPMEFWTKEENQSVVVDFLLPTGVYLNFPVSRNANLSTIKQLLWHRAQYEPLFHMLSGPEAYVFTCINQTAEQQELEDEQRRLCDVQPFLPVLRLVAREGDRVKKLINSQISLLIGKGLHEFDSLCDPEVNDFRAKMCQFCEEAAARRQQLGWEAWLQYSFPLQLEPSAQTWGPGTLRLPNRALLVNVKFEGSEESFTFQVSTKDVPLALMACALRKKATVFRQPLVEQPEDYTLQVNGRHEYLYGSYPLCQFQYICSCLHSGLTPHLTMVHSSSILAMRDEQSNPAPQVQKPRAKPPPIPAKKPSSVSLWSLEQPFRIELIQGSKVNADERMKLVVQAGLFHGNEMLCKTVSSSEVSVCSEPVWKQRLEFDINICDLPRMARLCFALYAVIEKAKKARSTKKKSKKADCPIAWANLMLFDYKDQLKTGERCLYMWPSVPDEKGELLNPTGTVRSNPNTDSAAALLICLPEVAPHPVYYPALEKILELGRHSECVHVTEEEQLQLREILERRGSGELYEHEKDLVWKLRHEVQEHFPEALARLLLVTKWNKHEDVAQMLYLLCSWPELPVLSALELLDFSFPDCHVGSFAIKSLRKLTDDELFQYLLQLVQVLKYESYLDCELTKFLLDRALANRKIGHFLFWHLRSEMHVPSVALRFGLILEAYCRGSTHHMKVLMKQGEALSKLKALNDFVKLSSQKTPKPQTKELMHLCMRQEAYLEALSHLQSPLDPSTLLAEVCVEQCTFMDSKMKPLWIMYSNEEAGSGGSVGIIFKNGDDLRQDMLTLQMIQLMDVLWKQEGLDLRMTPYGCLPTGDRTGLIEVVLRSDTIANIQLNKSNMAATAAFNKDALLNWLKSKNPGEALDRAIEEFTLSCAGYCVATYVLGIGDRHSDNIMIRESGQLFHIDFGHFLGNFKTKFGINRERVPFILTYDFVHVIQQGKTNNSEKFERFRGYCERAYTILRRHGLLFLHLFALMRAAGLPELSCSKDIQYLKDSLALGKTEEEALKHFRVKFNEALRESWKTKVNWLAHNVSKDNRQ
# Sequence (Q63787 whole entry partner): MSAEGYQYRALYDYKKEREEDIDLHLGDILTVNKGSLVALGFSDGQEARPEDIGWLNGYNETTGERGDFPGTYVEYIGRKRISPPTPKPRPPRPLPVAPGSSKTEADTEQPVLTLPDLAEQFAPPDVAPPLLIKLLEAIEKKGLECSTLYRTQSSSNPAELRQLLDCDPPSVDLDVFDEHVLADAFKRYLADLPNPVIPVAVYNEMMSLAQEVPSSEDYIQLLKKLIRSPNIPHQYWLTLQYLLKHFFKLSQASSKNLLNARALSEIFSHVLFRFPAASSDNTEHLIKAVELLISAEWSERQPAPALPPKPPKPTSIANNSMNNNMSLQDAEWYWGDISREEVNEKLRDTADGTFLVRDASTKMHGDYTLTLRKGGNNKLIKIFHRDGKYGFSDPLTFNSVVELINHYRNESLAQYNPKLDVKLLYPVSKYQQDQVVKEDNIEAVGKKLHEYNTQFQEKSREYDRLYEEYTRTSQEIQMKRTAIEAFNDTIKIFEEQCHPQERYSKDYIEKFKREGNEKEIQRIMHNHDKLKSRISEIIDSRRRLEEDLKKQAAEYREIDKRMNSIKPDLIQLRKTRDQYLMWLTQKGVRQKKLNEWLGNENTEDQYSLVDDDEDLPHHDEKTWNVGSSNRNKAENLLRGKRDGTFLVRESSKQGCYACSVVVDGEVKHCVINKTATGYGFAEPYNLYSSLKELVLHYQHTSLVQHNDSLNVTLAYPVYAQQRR
# method_description: Cellular p-Akt (S473) SureFire assay, Rat-1_PI3Kdelta cells (Assay J)
# Format: cell-based
# test_context: p-AKT (Ser473) in Rat-1 cells expressing myr-HA-hp110 delta, 1 h compound; read-out: Assay J PI3Kδ IC50
Form field: pIC50 (one value per entry).
Answer as the number alone; pIC50 is minus log10 of concentration in mol/L.

Below, each entry is followed by its recorded pIC50 result.
>>> print(df.to_string())
                                   compound  value_type  recorded_result
0  Cc1ccc(S(=O)(=O)NCC(C)(C)O)cc1-c1cncc(-c2cn(C)nc2C)n1       pIC50             6.44
1  Cc1ccc(S(=O)(=O)NC2CC3(CC(O)C3)C2)cc1-c1cncc(-c2cn(C)nc2C)n1 (stereo not drawn)       pIC50             6.29
2  Cc1ccc(S(=O)(=O)N[C@H]2CC[C@H](O)CC2)cc1-c1cncc(-c2csc(CN3CCOCC3)c2)n1       pIC50             6.51

Provide the documented pIC50 with PI 3-kinase delta (Homo sapiens (Human), UniProt O00329) as the system for Cc1ccc(S(=O)(=O)N[C@H]2CC[C@H](O)CC2)cc1-c1cncc(-c2cccnc2)n1
5.98

Same question, Cc1ccc(S(=O)(=O)NCCC(C)(C)O)cc1-c1cncc(-c2cn(CCN3CCOCC3)nc2C)n1 this time
6.11

Again, but for Cc1ccc(S(=O)(=O)NCC2(C)COC2)cc1-c1cncc(-c2cn(C)nc2C)n1
6.55

Next entry: Cc1ccc(S(=O)(=O)NCCC(C)(C)O)cc1-c1cncc(-c2cn(C)nc2C)n1
5.86

Would you mind doing Cc1ncc(-c2cncc(-c3cc(S(=O)(=O)N[C@H]4CC[C@H](O)CC4)ccc3C)n2)s1 as well?
6.27

Then what about the compound Cc1ccc(S(=O)(=O)NCCC(C)(C)O)cc1-c1cncc(-c2cnn(CCN3CCOCC3)c2)n1 ?
5.77

----------
# System: IL-8-induced neutrophil shape change in human whole blood
# method_description: Whole blood neutrophil shape change assay (Assay L)
# Format: cell-based
# test_context: 2 nM IL-8, neutrophil shape change by flow cytometry, read-out: Assay L WBSC IC50
value_type: pIC50
pIC50 field: float, defined as -log10 of concentration (mol/L).

# count of solved cases: 5
>>> df
                                   compound  recorded_result
0  Cc1ccc(S(=O)(=O)NC[C@H]2C[C@@H](O)C2)cc1-c1cncc(-c2cn(C)nc2C)n1             6.67
1  Cc1ccc(S(=O)(=O)N[C@H]2CC[C@H](O)CC2)cc1-c1cncc(-c2csc(CN3CCOCC3)c2)n1             6.08
2  Cc1ccc(S(=O)(=O)NCC(C)(C)O)cc1-c1cncc(-c2cn(C)nc2C)n1             6.58
3  Cc1ccc(S(=O)(=O)NCC2(C)COC2)cc1-c1cncc(-c2cn(C)nc2C)n1             6.26
4  Cc1ccc(S(=O)(=O)N[C@H]2CC[C@H](O)CC2)cc1-c1cncc(-c2cccnc2)n1             6.12

pIC50 lookup needed for Cc1ccc(S(=O)(=O)NC2CC3(CC(O)C3)C2)cc1-c1cncc(-c2cn(C)nc2C)n1 (stereo not shown) , thanks.
6.43

Check Cc1ccc(S(=O)(=O)NCC(C)(C)CO)cc1-c1cncc(-c2cn(C)nc2C)n1 too.
6.20

Now the same for Cc1cc(-c2cncc(-c3cc(S(=O)(=O)NC[C@H]4C[C@@H](O)C4)ccc3C)n2)n(C)n1
6.07
